Exercise: state measured selectivity ratio for each of the molecules provided.
- method_notes: Selectivity index, ratio of IC50 for human HaCaT cells to IC50 for human HCT-116 cells
- Format: toxicity
- run_parameters: read-out: Ratio IC50
Answers are plain numbers.

Below are worked cases with known answers.
>>> readout_number("COc1cc(-c2coc3c(CCC(C)(C)O)c(O)cc(O)c3c2=O)ccc1O")
0.9
>>> readout_number("COc1ccc(-c2coc3c(CC=C(C)C)c(O)cc(O)c3c2=O)cc1O")
0.8
>>> readout_number("CC(C)=CCc1c(O)cc(O)c2c(=O)c(-c3ccc(O)cc3)coc12")
0.9
>>> readout_number("CC(C)(O)CCc1c(O)cc(O)c2c(=O)c(-c3ccc(O)cc3)coc12")
1.4

Continue with the molecule presented below.
Asked: Item COc1cc(-c2coc3c(CC=C(C)C)c(O)cc(O)c3c2=O)ccc1O has what recorded selectivity ratio?
Given back: 1.9

----------
- method_notes: Selectivity index, ratio of IC50 for human HaCaT cells to IC50 for antifungal activity against Candida albicans
- Format: toxicity
- run_parameters: read-out: Ratio IC50
metric: selectivity ratio
One number for each entry.

Asked: Returns the measured selectivity ratio for the input compound. Input: COc1ccc(-c2coc3c(CC=C(C)C)c(O)cc(O)c3c2=O)cc1O
Given back: 2.6

----------
- method_notes: Selectivity index, ratio of IC50 for human HaCaT cells to IC50 for human MDA-MB-231 cells
- Type: toxicity
- run_parameters: read-out: Ratio IC50
Provide the recorded selectivity ratio for the entries that follow.

>>> result("CC(C)(O)CCc1c(O)cc(O)c2c(=O)c(-c3ccc(O)cc3)coc12")
0.9

Can you give me selectivity ratio for all of these, one by one?
1. COc1cc(-c2coc3c(CC=C(C)C)c(O)cc(O)c3c2=O)ccc1O
2. COc1ccc(-c2coc3c(CC=C(C)C)c(O)cc(O)c3c2=O)cc1O

Given back:
[1.5, 0.6]

----------
- method_notes: Cytotoxicity against human HaCaT cells assessed as reduction in cell viability incubated for 24 hrs by CellTiter-Blue cell viability assay
- Type: toxicity, cell-based
metric: IC50 at 24 h (µM)
Give bare numbers, in µM.

>>> readout_number("COc1cc(-c2coc3c(CC=C(C)C)c(O)cc(O)c3c2=O)ccc1O")
80.7
>>> readout_number("COc1cc(-c2coc3c(CCC(C)(C)O)c(O)cc(O)c3c2=O)ccc1O")
207
>>> readout_number("COc1ccc(-c2coc3c(CC=C(C)C)c(O)cc(O)c3c2=O)cc1O")
69.8
>>> readout_number("CC(C)(O)CCc1c(O)cc(O)c2c(=O)c(-c3ccc(O)cc3)coc12")
135
>>> readout_number("CC(C)(O)CCc1c(O)cc(O)c2c(=O)c(-c3ccc(O)c(O)c3)coc12")
85.9
>>> readout_number("CC(C)=CCc1c(O)cc(O)c2c(=O)c(-c3ccc(O)cc3)coc12")
160

Asked: Look at this compound and give its reported IC50 at 24 h. COc1cccc2c1C(=O)c1c(O)c3c(c(O)c1C2=O)C[C@@](O)(C(=O)CO)C[C@@H]3O[C@H]1C[C@H](N)[C@H](O)[C@H](C)O1
Given back: 50

----------
- method_notes: Selectivity index, ratio of IC50 for human HaCaT cells to IC50 for antibacterial activity against methicillin-resistant Staphylococcus aureus
- Assay type: toxicity
- run_parameters: read-out: Ratio IC50
metric: selectivity ratio
Numbers only.

Examples from the recorded data:
>>> readout_number("CC(C)(O)CCc1c(O)cc(O)c2c(=O)c(-c3ccc(O)c(O)c3)coc12")
2.9
>>> readout_number("COc1cc(-c2coc3c(CCC(C)(C)O)c(O)cc(O)c3c2=O)ccc1O")
5.6

// moving on: another record for selectivity ratio
Asked: Need selectivity ratio, item COc1ccc(-c2coc3c(CC=C(C)C)c(O)cc(O)c3c2=O)cc1O
Given back: 10.3
